Measured values drawn from ChEMBL document CHEMBL1128519 for this set.

Assignment: determine reported inhibition for the given compounds.
- subject.of.test: Beta-1,3-glucan synthase (Candida albicans) (UniProt O13428)
- Sequence (O13428 as listed by the source): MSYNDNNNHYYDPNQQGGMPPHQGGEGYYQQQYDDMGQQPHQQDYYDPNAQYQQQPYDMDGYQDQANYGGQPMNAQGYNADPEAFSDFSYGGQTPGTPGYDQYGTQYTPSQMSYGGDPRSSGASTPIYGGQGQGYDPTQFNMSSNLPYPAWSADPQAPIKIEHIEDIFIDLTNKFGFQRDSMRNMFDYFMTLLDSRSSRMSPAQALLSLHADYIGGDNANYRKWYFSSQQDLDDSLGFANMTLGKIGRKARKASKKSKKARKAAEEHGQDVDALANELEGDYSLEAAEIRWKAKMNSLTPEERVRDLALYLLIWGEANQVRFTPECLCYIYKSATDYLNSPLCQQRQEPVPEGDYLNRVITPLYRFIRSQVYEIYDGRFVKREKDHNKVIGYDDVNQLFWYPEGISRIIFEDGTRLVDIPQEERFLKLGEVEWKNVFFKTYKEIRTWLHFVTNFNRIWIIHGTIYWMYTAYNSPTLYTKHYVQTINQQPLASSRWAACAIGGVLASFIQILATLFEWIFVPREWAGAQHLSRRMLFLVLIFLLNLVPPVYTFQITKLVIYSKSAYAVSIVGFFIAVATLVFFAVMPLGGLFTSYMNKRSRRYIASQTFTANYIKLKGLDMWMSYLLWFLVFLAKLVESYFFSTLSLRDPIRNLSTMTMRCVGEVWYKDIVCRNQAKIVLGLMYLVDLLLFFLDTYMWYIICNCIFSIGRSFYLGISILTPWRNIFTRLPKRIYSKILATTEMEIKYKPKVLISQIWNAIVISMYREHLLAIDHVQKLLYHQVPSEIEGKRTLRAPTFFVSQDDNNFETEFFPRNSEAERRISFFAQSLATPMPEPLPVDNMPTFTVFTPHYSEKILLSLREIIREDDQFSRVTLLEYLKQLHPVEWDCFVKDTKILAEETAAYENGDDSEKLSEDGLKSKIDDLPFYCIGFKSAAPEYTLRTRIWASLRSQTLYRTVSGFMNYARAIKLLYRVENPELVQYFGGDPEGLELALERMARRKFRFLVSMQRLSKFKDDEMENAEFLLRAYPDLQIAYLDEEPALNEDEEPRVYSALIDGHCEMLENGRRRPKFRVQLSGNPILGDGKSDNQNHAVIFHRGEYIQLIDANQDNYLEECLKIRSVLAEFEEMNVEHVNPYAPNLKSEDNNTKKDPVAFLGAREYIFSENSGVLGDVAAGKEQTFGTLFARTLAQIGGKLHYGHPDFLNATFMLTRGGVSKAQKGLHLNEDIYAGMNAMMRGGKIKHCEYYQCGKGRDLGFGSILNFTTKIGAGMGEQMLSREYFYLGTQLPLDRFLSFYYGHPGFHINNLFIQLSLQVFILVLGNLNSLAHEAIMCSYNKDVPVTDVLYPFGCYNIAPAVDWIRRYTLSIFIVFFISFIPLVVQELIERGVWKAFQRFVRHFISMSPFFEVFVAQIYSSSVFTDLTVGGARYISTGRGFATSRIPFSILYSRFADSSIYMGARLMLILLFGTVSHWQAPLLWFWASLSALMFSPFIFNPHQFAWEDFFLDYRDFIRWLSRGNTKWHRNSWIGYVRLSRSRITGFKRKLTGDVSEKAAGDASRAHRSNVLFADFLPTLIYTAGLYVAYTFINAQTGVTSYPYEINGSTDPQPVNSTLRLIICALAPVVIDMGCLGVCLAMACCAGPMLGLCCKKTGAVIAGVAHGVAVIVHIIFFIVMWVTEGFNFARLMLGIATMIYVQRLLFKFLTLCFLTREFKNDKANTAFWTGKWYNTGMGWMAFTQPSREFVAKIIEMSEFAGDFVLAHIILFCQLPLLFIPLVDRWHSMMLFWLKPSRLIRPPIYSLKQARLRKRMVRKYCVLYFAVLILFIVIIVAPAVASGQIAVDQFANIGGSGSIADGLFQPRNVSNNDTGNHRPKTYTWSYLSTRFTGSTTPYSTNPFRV
- experiment: In vitro inhibition of glucan synthase obtained from Candida albicans at a concentration of 10 ug/mL.
Numbered stars: 1 amine (or outer) side, 2 acyl side, 3 side chain; on linkers, the order of the positions; unused ones are H or OH. Bridge positions count the residues as written; N and C are the ends. Square brackets hold non-standard residues; d marks the D form. Peptide text beside a SMILES is read from it. * marks the point of attachment. Orn(4R-OH,5R-OH) = O=C([C@H](C[C@@H](O)[C@@H](O)N[*:3])N[*:1])[*:2]; Benzoyl(4-(biphenyl-4-yl)) = O=C(c1ccc(-c2ccc(-c3ccccc3)cc2)cc1)*; hTyr(3S-OH,4S-OH) = N[C@H](C(=O)O)[C@H](O)[C@@H](O)c1ccc(O)cc1; Pro(3S-OH,4S-Me) = C[C@H]1CN[C@H](C(=O)O)[C@H]1O; X27 = CCCCCCCCCCOc1cc2ccccc2cc1C(=O)*; Hyp = O=C(O)[C@@H]1C[C@@H](O)CN1
Numbers only, in %.

C[C@@H](O)[C@@H]1NC(=O)[C@H]([C@H](O)[C@@H](O)c2ccc(O)cc2)NC(=O)[C@@H]2C[C@@H](O)CN2C(=O)[C@H]([C@@H](C)O)NC(=O)[C@@H](NC(=O)c2ccc(-c3ccc(-c4ccccc4)cc3)cc2)C[C@@H](O)[C@@H](O)NC(=O)[C@@H]2[C@@H](O)[C@@H](C)CN2C1=O ({Benzoyl(4-(biphenyl-4-yl))}-[Orn(4R-OH,5R-OH)]T[Hyp][hTyr(3S-OH,4S-OH)]T[Pro(3S-OH,4S-Me)]; lactam 1-C); 78.8

Now take the following compound into account.
Sure, the documented inhibition for CCCCCCCCCCOc1cc2ccccc2cc1C(=O)N[C@H]1C[C@@H](O)[C@@H](O)NC(=O)[C@@H]2[C@@H](O)[C@@H](C)CN2C(=O)[C@H]([C@@H](C)O)NC(=O)[C@H]([C@H](O)[C@@H](O)c2ccc(O)cc2)NC(=O)[C@@H]2C[C@@H](O)CN2C(=O)[C@H]([C@@H](C)O)NC1=O (X27-[Orn(4R-OH,5R-OH)]T[Hyp][hTyr(3S-OH,4S-OH)]T[Pro(3S-OH,4S-Me)]; lactam 1-C) is 40.6
